procedureDetails: Pharmacokinetics of ZA in pig serum after IV or SC infusion with or without rHuPH20 (LC-MS-MS, non-compartmental analysis)
Format: in vivo
protocolConditions: female, Yorkshire, pig, serum, subcutaneous, […], pig 64, Study Group 3, SC, ZA […], rHuPH20 10000 U/mL, 100 mL over 16 min, time 1 h; read-out: Zoledronic Acid Serum Concentration
outcomeMeasure: concentration at 1 h (ng/mL)
Answer in ng/mL, number only, no unit symbol.

Ask: Can you look up the measured concentration at 1 h of "O=P(O)(O)C(O)(Cn1ccnc1)P(=O)(O)O" for me?
Result: 101

----------
procedureDetails: Phase 1 Stage 1 clinical pharmacokinetics of SC ZA co-administered with rHuPH20
Type: in vivo, human
protocolConditions: human, serum, sc, serum; ZA 0.5 mg SC infusion + 24000 Units rHuPH20; 8 h post infusion; n=3; read-out: Median Conc.
outcomeMeasure: concentration at 8 h (ng/mL)
Respond numerically; units are ng/mL and should not be typed.

Ask: Would you kindly share the measured concentration at 8 h for "O=P(O)(O)C(O)(Cn1ccnc1)P(=O)(O)O" ?
Result: 1.34
